Tested on: CCRIS mutagenicity, Ames/micronucleus/aberration tests
ASSAY REMARKS: CCRIS mutagenicity studies
CONDITIONS: Test System: AMES SALMONELLA TYPHIMURIUM; Strain/Indicator: TA100; Metabolic Activation: RAT, LIVER, S-9, AROCLOR 1254 (10%); Method: PREINCUBATION
The source made the active and inactive calls. How the calls were made is not given here.
Outcomes: active, inactive

1. COc1c(Cl)c(Cl)c(Cl)c(Cl)c1Cl : inactive
2. Nc1ccc2c(c1)C(=O)/C(=N/Nc1ccc(-c3ccc(N/N=C4/C(=O)c5c(N)cc(S(=O)(=O)O)cc5C=C4S(=O)(=O)O)cc3)cc1)C(S(=O)(=O)O)=C2 : inactive
3. Nc1ccccc1N : active
4. Nc1ccc([N+](=O)[O-])cc1O : inactive
5. ClC(Cl)(Cl)Cl : inactive
6. Cc1c(Br)c(Br)c(Br)c(Br)c1Br : inactive
7. O=c1ccc(=O)[nH][nH]1 : inactive
8. CC(CCN(C)C)N(C)C (centres undefined) : inactive
9. c1cc2c3c(cccc3c1)CC2 : inactive
10. OCC(CBr)(CBr)CBr : inactive
11. C=CC1CC=CCC1 (centres undefined) : inactive
12. O=S1(=O)CC=CC1 : inactive
13. Nc1cc([N+](=O)[O-])ccc1O : inactive
14. O=C(O)CCC(=O)OC[C@@H](NC(=O)C(Cl)Cl)[C@H](O)c1ccc([N+](=O)[O-])cc1 : inactive
15. CCCCCCCCCCCCC/C([O-])=N/[N+](C)(C)CC(C)O (centres undefined) : inactive
16. Cc1cccc(Br)c1 : inactive
17. O=C1c2ccccc2C(=O)c2cc(O)ccc21 : inactive
18. O=NN(CCO)CCO : active
19. Cc1ccc(N=C=O)cc1N=C=O : active
20. CC(O)C#N (centres undefined) : inactive
21. C=CCOC(=O)C=C : inactive
22. Clc1nc(Cl)nc(Nc2ccccc2Cl)n1 : inactive
23. CC(=O)CC(=O)Nc1ccccc1 : inactive
24. CCOc1ccccc1N : inactive
25. CCc1c(Br)c(Br)c(Br)c(Br)c1Br : inactive
26. Cc1ccc(N)c(N)c1 : active
27. Oc1cccc(O)c1 : inactive
28. C=CC(=O)O : inactive
29. CC(C)CC(=O)CC(C)C : inactive
30. O=Cc1c(Cl)cccc1Cl : inactive
31. CC(C)Nc1ccccc1 : inactive
32. c1ccc(OP(Oc2ccccc2)Oc2ccccc2)cc1 : inactive
33. CCCCC(CC)COP(OCC(CC)CCCC)OCC(CC)CCCC (centres undefined) : inactive
34. CCCCOC(=O)c1ccccc1C(=O)OCCCC : inactive
35. O=C(O)c1ccc([N+](=O)[O-])cc1 : active
36. Nc1ccc(C(=O)O)cc1 : inactive
37. O=Cc1ccco1 : inactive
38. CCOP(=S)(OCC)OP(=S)(OCC)OCC : inactive
39. C=CCNCC=C : inactive
40. Cc1ccc(N)c(C)c1 : active
41. COc1cc(-c2ccc(N/N=C3/C(=O)c4c(N)cc(S(=O)(=O)O)cc4C=C3S(=O)(=O)O)c(OC)c2)ccc1N/N=C1/C(=O)c2c(N)cc(S(=O)(=O)O)cc2C=C1S(=O)(=O)O : inactive
42. CCOc1ccc(N=Nc2ccc(-c3ccc(N=Nc4c(O)ccc5cc(S(=O)(=O)O)cc(S(=O)(=O)O)c45)c(C)c3)cc2C)cc1 : inactive
43. CCC(Cl)C(Cl)C(Cl)CC(Cl)C(Cl)C(C)Cl (centres undefined) : inactive
44. CC(=O)Nc1ccc(N)cc1 : inactive
45. N#CCc1ccccc1[N+](=O)[O-] : active
46. S=C=Nc1cccc2ccccc12 : inactive
47. Cc1cc(-c2ccc(N=Nc3cc(S(=O)(=O)O)c4ccccc4c3N)c(C)c2)ccc1N=Nc1cc(S(=O)(=O)O)c2ccccc2c1N : inactive
48. C=CC(=O)OCCN(C)C : inactive
49. NCCCCCCN : inactive
50. CCCCCCCCCCCCCC(=O)O : inactive
51. Nc1nc(N)c2nc(-c3ccccc3)c(N)nc2n1 : inactive
52. CCCCCc1cc(O)cc(O)c1 : inactive
53. CN(C)c1cccc(O)c1 : active
54. O=C1NC(=O)c2cc([N+](=O)[O-])ccc21 : inactive
55. C=CC(=O)OCC(C)C : inactive
56. CCCCOC(=O)c1ccccc1C(=O)OC1CCCCC1 : inactive
57. O=C(CCl)c1ccccc1 : inactive
58. CCCCOP(=O)(OCCCC)Oc1ccccc1 : inactive
59. c1ccc(CSCc2ccccc2)cc1 : inactive

###

System: CCRIS mutagenicity, Ames/micronucleus/aberration tests
ASSAY REMARKS: CCRIS mutagenicity studies
CONDITIONS: Test System: AMES SALMONELLA TYPHIMURIUM; Strain/Indicator: TA1538; Metabolic Activation: RAT, LIVER, S-9, TETRACHLOROBIPHENYL; Method: PREINCUBATION
Calls of active or inactive are those of the source. The rule behind the calls is not given here.
PROPERTY: mutagenic call

1. Nc1cccc2nc3ccccc3c(N)c12 : active; positive
2. Nc1ccc2nc3ccccc3cc2c1 : active; positive
3. Nc1ccc2cc3ccc(N)cc3nc2c1 : active; positive
4. C[n+]1c2cc(N)ccc2cc2ccc(N)cc21 : active; positive

###

Test system: CCRIS mutagenicity, Ames/micronucleus/aberration tests
ASSAY REMARKS: CCRIS mutagenicity studies
CONDITIONS: Test System: E. COLI; Strain/Indicator: WP2 UVRA; Metabolic Activation: MOUSE, LIVER, S-9; Method: STANDARD PLATE
Activity calls are given as the source filed them. How the calls were made is not given here.
PROPERTY: mutagenic call

1. CC1=NN(c2ccccc2)C(=O)C1 : inactive; negative
2. O=C(O)CC[N+](=O)[O-] : inactive; negative
3. CC(=O)c1ccc(S(=O)(=O)NC(=O)NC2CCCCC2)cc1 : inactive; negative
4. S=C=Nc1cccc2ccccc12 : inactive; negative
5. Nc1ccc2cc3ccc(N)cc3nc2c1 : inactive; negative
6. CCOc1ccc(NC(C)=O)cc1N : inactive; negative
7. O=[N+]([O-])c1ccc2c(c1)Cc1ccccc1-2 : inactive; negative
8. Clc1nc(Cl)nc(Nc2ccccc2Cl)n1 : inactive; negative
9. C#C[C@]1(O)CC[C@H]2[C@@H]3CCc4cc(O)ccc4[C@H]3CC[C@@]21C : inactive; negative
10. CC(=O)Nc1ccc2c(c1)Cc1ccccc1-2 : inactive; negative
11. O=[N+]([O-])c1ccc(Oc2ccc(Cl)cc2Cl)cc1 : inactive; negative
12. Cc1c2ccccc2c(C)c2c1ccc1ccccc12 : inactive; negative
13. COc1cc(-c2ccc(N=C=O)c(OC)c2)ccc1N=C=O : inactive; negative

###

Tested on: CCRIS mutagenicity, Ames/micronucleus/aberration tests
ASSAY REMARKS: CCRIS mutagenicity studies
CONDITIONS: Test System: AMES SALMONELLA TYPHIMURIUM; Strain/Indicator: TA98; Metabolic Activation: NONE
Active and inactive are the calls of the source. No rule for the calls is given here.
PROPERTY: mutagenic call

1) Oc1cc(Cl)c(Cl)cc1Cl : inactive; negative
2) O=[N+]([O-])c1cccc2c1-c1cccc3c([N+](=O)[O-])ccc-2c13 : active; positive
3) FC(F)(F)C(F)(F)C(F)(F)C(F)(F)I : inactive; negative
4) N : inactive; negative
5) COc1cccc2c1C(=O)c1c(O)c3c(c(O)c1C2=O)C[C@@](O)(C(=O)CO)CC3O[C@H]1C[C@H](N(C)C)[C@H](O)[C@H](C)O1 (stereo partly specified) : inactive; negative
6) O=[N+]([O-])c1ccc2c(c1)CCc1cc3c(cc1-2)CCCC3 : active; positive
7) O=[N+]([O-])c1ccc2c(ccc3c4ccccc4ccc23)c1 : active; positive
8) CCOP(=S)(OCC(C)C)SCCl (stereo unspecified) : inactive; negative
9) O=C1NCCN1/N=C/c1ccc([N+](=O)[O-])o1 : active; positive
10) Oc1cccc(O)c1 : inactive; negative
11) O=[N+]([O-])c1ccc2ccc3c4ccccc4nc4ccc1c2c43 : active; positive

###

Tested on: CCRIS mutagenicity, Ames/micronucleus/aberration tests
ASSAY REMARKS: CCRIS mutagenicity studies
CONDITIONS: Test System: AMES SALMONELLA TYPHIMURIUM; Strain/Indicator: TA1538; Metabolic Activation: RAT, LIVER, S-9, AROCLOR 1254; Method: STANDARD PLATE
Activity calls are given as the source filed them. How the calls were made is not given here.
Outcomes: active, inactive

1) OC/C=C/c1ccccc1 : inactive
2) CCOc1ccc(N=Nc2ccc(-c3ccc(N=Nc4c(O)ccc5cc(S(=O)(=O)O)cc(S(=O)(=O)O)c45)c(C)c3)cc2C)cc1 : active
3) c1ccc(-c2ccc(-c3ccccc3)cc2)cc1 : inactive
4) O=C(CBr)c1ccccc1 : inactive
5) COc1cc(-c2ccc(N=C=O)c(OC)c2)ccc1N=C=O : active
6) O=C1c2ccccc2C(=O)c2c1ccc(O)c2O : inactive
